# credit: the CheMixHub drug solubility set

Assay: xn = mol fraction of the nth substance listed, in the solute-free solvent
Conditions: 283.15 K; x2 = 0.6101
The following compounds are shown together with reported solubility (g/100 g solution) values.

compound	solubility (g/100 g solution)
CC(=O)Nc1ccc(OC(=O)c2ccccc2OC(C)=O)cc1 + CCO + O	0.178
O=[N+]([O-])c1cc[nH]n1 + CCO + O	2.68
CS(=O)(=O)c1ccc(C(O)C(CF)NC(=O)C(Cl)Cl)cc1 (centres undefined) + CCO + O	1.22
COC(=O)C1=C(C)NC(C)=C(C(=O)OCC(C)C)C1c1ccccc1[N+](=O)[O-] (centres undefined) + CCO + O	2.75
